system: OVCAR-5 ovarian; experiment: NCI-60 one-dose screen, 48 h (100 = growth as untreated, 0 = no growth, -100 = all killed); conditions: 10 µM unless noted
The panel holds about 83,000 compounds, 20% with a hit somewhere; the sample as a whole holds those more often. Calls of active or inactive are those of the source. How the source made its calls: active means growth percent below 10; inactive means the rest.
Endpoint name: growth

QUERY: Field request: growth | item: `COC(=O)c1nc(=S)[nH]c(C(=O)OC)c1C(=O)c1ccccc1`
RESULT: 106% (inactive)

---
QUERY: Endpoint output: growth of `COc1ccc(CCN=Cc2ccc(Cl)cc2)cc1OC` . Value?
RESULT: 119% (inactive)

QUERY: Need growth of Cc1ccc(NC(=S)N/C=C(\c2ccccc2)S(=O)Cc2ccccc2)c(C)c1 (centres undefined) , thanks.
RESULT: 97% (inactive)

QUERY: Record request: growth value, item `O=C1c2cccnc2-c2ncccc21`
RESULT: 122% [100 µM] (inactive)

QUERY: What does the record list as growth for COCCCNC1=C(C#N)C(=O)NC(c2cccs2)S1 (centres undefined) ?
RESULT: 109% (inactive)

QUERY: Give the measured growth of `CC(=O)C[n+]1ccccc1Sc1ccc(Cl)cc1` .
RESULT: 148% (inactive)

QUERY: # get_value(readout='growth', item= `NNC(=O)Nc1ccccc1` )
RESULT: 102% (inactive)

###

Test system: HS 578T breast
Assay: NCI-60 one-dose screen, 48 h (100 = growth as untreated, 0 = no growth, -100 = all killed)
Settings: 10 µM unless noted
Description: Growth inhibition of the HS 578T human tumor cell line is measured as a screen for anti-cancer activity. Cells are grown in 96 well plates and exposed to the test compound for 48 hours. Compounds are tested at a single concentration, which is 10^-5 M for most compounds. The reported endpoint is percent growth (GI% or GIPRCNT), where numbers from 0 - 100% represent growth inhibition, and numbers from -100% - 0 represent cell death. For example, a value of 40 represents 60% growth inhibition. […]
Compounds without any hit were thinned out: in the full panel of roughly 83,000, 20% have a hit.
Items are presented alongside their recorded growth.
Your answer should be a plain number; it is taken to be in %.

QUERY: Would you kindly share the measured growth for CC1NC(C)c2ccc3ccccc3c2O1 (centres undefined) ?
RESULT: 108

QUERY: Value lookup for growth; key = `Cc1ccc(S(=O)(=O)n2ccnc2)cc1`
RESULT: 111

QUERY: I have this compound here, `CN(C)C(=N)N=C(N)N` , and I need its recorded growth.
RESULT: 144

QUERY: Query (compound): `CCC/C(=N/NC(N)=O)c1ccco1` ; field requested: growth
RESULT: 97.5

QUERY: Fill blank: measured growth of the compound `CC1=CC(=O)C=CC1=Nc1ccc(N(C)C)cc1` is ____.
RESULT: 109

QUERY: Given the entry `CC(=O)Oc1ccc(C(c2ccc(OC(C)=O)cc2)c2ccccn2)cc1` , report its measured growth.
RESULT: 31.2

QUERY: Entry `COC(=O)CCOc1ccccc1` has what growth?
RESULT: 195

QUERY: Which growth value is on record for `Cc1ccc(C(=O)c2ccc(C)cc2)cc1` ?
RESULT: 101

QUERY: Which growth value belongs to `Nc1ccc(O)c(C(=O)O)c1` ?
RESULT: 112

QUERY: growth lookup needed for `NCCSSC/C=C\CSSCCN` , thanks.
RESULT: 93

Query compound follows.
QUERY: Report growth for `CCCCCCCCCCCCCCCCC(=O)O` please.
RESULT: 100

###

Recorded growth for the following compounds
tested on: A549/ATCC NSCLC; test: NCI-60 one-dose screen, 48 h (100 = growth as untreated, 0 = no growth, -100 = all killed); settings: 10 µM unless noted
This is part of a sample that, as a whole, favours compounds with a hit. Of some 83,000 tested, about 20% had one in any assay.
Express it in %; write the number only.

QUERY: Record request: growth value, item `O=C1C=CC(=O)N1Cc1ccco1`
RESULT: 92.1

QUERY: Can you look up the measured growth of `O=C(O)COc1ccccc1F` for me?
RESULT: 110

QUERY: Using the record for `CC(=O)c1cc2ccccc2o1` , report its growth.
RESULT: 104

QUERY: What does the data say about its growth? Entry: `CCNC1=CC(=O)c2ncccc2C1=O`
RESULT: -54.8

More entries:
QUERY: Which value of growth has been reported for `COC(=O)c1nc(=S)[nH]c(C(=O)OC)c1C(=O)c1ccc(OC)cc1` in the records?
RESULT: 118

QUERY: Dear colleague, I am looking for the recorded growth of the following compound: `O=[N+]([O-])c1ccc(N2CCN=N2)cc1`
RESULT: 82.2

QUERY: For `Nc1nc(-c2ccccn2)cc(-c2cc(-c3ccccn3)nc(N)n2)n1` , what is its reported growth?
RESULT: 117

QUERY: Request the reported growth associated with `Nc1c(S(=O)(=O)O)cc(Br)c2c1C(=O)c1ccccc1C2=O`
RESULT: 104

QUERY: Which growth value belongs to `CCCCNC(=O)c1ccccc1C` ?
RESULT: 100

QUERY: Please report the recorded growth for `C/C=C(/C(=O)NC(N)=O)C(C)C` .
RESULT: 97.7

QUERY: Entry under review: `O=C(O)c1cc(=O)[nH]c(=O)[nH]1` . Reported growth?
RESULT: 98.3

QUERY: Any idea what growth was measured for CC1CC(O)CC(C)(C)C1.CC1CC(O)CC(C)(C)C1.CC1CC(O)CC(C)(C)C1.CC1CC(O)CC(C)(C)C1.[Ti] (configuration not stated) ?
RESULT: 92.6

###

system: M14 melanoma; assay: NCI-60 one-dose screen, 48 h (100 = growth as untreated, 0 = no growth, -100 = all killed); conditions: 10 µM unless noted
This is part of a sample that, as a whole, favours compounds with a hit. Of some 83,000 tested, about 20% had one in any assay.
Endpoint name: growth (%)
# unit: % | format: bare number

Worked examples, 3 compounds total:
QUERY: Param readout = growth; param system = M14 melanoma; param query = `CCCC(=O)Oc1ccc2ccccc2c1` ; response: value
RESULT: 97.5

QUERY: Write down the reported growth of CCCCCCC(C)CC1=C(O)c2ccccc2C(=O)C1=O (configuration not stated) , test system: M14 melanoma.
RESULT: 44.1

QUERY: Query growth on M14 melanoma for `CCCCNC(=O)c1ccccc1C`
RESULT: 90.4

New cases:
QUERY: Form field: growth recorded for `CCOC(=O)c1ccc(C(=N)N)cc1` with M14 melanoma (enter value)
RESULT: 108

QUERY: API: value(readout=growth, system=M14 melanoma) for record `COc1ccc(CCl)c(C)c1OC`
RESULT: 110

QUERY: Could you share what growth was measured for COc1cc2oc3cc(=O)cc4oc(-c5ccccc5)cc(c2c2c1CCC(c1ccccc1)O2)c43 (configuration not stated) , tested on M14 melanoma?
RESULT: 88.2

QUERY: # returns recorded growth (system: M14 melanoma) for `C/C=C/C(=O)OCCCCCCCCCCCC`
RESULT: 98.7

QUERY: Query the reported growth for M14 melanoma; item: `CCn1c2ccc(N(C)C)cc2c2cc(N(C)C)ccc21`
RESULT: 102

QUERY: Lab note: need growth with M14 melanoma for entry `O=[N+]([O-])c1cccc(N=Cc2ccccc2)c1` , please look it up.
RESULT: 106

QUERY: // map `COc1ccc2oc3c(ccc[n+]3C)c(=O)c2c1` to recorded growth (system: M14 melanoma)
RESULT: 102

QUERY: Find growth (M14 melanoma) for the entry `COCCNC(C)=O`
RESULT: 109

QUERY: Form: Entry = `CC(C)(C)OC(=O)c1ccc(NCc2cc(O)ccc2O)cc1` | System = M14 melanoma | growth = ____
RESULT: 44.5

QUERY: Provide the documented growth with M14 melanoma as the system for `CCN(CC)C(=S)SCCO`
RESULT: 106

QUERY: Field: growth (M14 melanoma). Entry: `C/C(CC(C)C)=N/NC(N)=S`
RESULT: 84.4

QUERY: Provide value of growth for this record tested with M14 melanoma: Nc1ccccc1SC1CC(=O)N(c2ccc(I)cc2)C1=O (configuration not stated)
RESULT: 88

QUERY: Lab note: need growth for `Cc1cccc(Cl)c1N` on M14 melanoma, anyone have it?
RESULT: 105

QUERY: Could you share what growth was measured for `O=c1[nH]c(=O)c2[nH]c(=O)[nH]c2[nH]1` , tested on M14 melanoma?
RESULT: 91.5

QUERY: Which growth is reported with M14 melanoma for this entry: CCOC(=O)c1ccc(N2C(=O)C(Cl)(c3ccccc3)C2c2ccco2)cc1 (configuration not stated) ?
RESULT: 98.7

QUERY: Please state recorded growth (tested on M14 melanoma) of O=C(c1ccc(Cl)cc1)C1C(c2ccccc2)C1[N+](=O)[O-] (configuration not stated)
RESULT: 102

QUERY: What reported growth corresponds to `Cc1cnc(N)s1` on M14 melanoma?
RESULT: 91.9

QUERY: // lookup growth | system=M14 melanoma | key= CN(C)CC(CN(C)C)C(O)c1ccccc1 (configuration not stated)
RESULT: 96.4

QUERY: Lab note: need growth for `O=C(O)Cc1cc(=O)[nH]n(-c2ccccc2)c1=O` on M14 melanoma, anyone have it?
RESULT: 106

QUERY: Please state recorded growth (tested on M14 melanoma) of `Cc1c(Cl)c(C)c(Cc2c(C)c(Cl)c(C)c(Cl)c2O)c(O)c1Cl`
RESULT: 22.6

QUERY: Hello, I am looking for reported growth with M14 melanoma for `COC(=O)c1nc(N)nc(C(=O)OC)c1C(=O)c1ccc(F)cc1` . Could you help?
RESULT: 108

QUERY: # get_value(readout= growth, system= M14 melanoma) for `O=C(c1ccncc1)c1c(Cc2ccccc2)ccc2ccccc12`
RESULT: 108

QUERY: Request - read-out growth | tested on M14 melanoma | compound `CC(=O)/C(N=Nc1ccc(S(=O)(=O)c2ccc(N=N/C(C(C)=O)=C(/C)O)cc2)cc1)=C(\C)O`
RESULT: 105

QUERY: Return growth measured with M14 melanoma given this compound: CC(NC(=O)CCl)c1ccccc1 (configuration not stated)
RESULT: 93.8
